system: LOC_OS04G35114-cb001; assay: thermal shift delta Tm vs DMSO control; higher = stronger stabilization (binding); settings: 12.5 µM; protein concentration 2 µM;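 note: purified Escherichia coli-expressed rice kinase domain construct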
Counter-ions that a name gives are not always drawn.
Please use Condition met whenever thermal shift delta Tm is not below 1 °C, and Condition not met whenever it is.

QUERY: Form field: thermal shift delta Tm at least 1 °C? Entry: COc1cc(N2CCC(N(C)C)CC2)ccc1Nc1ncc(Cl)c(Nc2ccccc2P(C)(C)=O)n1
RESULT: Condition met

QUERY: Try C[C@H]1[C@H](C)CC[C@]2(C(=O)O)CC[C@]3(C)C(=CC[C@@H]4[C@@]5(C)C[C@@H](O)[C@H](O)[C@@](C)(CO)[C@@H]5CC[C@]43C)[C@H]12 next.
RESULT: Condition not met

QUERY: Thanks! And O=C(/C=C/c1ccc2ccccc2n1)c1ccncc1 ?
RESULT: Condition met

QUERY: Same for CCC(=O)Nc1cccc(Oc2nc(Nc3ccc(N4CCN(C)CC4)cc3OC)ncc2Cl)c1
RESULT: Condition not met

QUERY: And CC(C)N(CCC(=O)c1ccc2ccccc2c1)Cc1ccccc1 ?
RESULT: Condition not met

QUERY: Item: CNS(=O)(=O)Nc1nccc(Cc2c(C)c3ccc(Oc4ncccn4)cc3oc2=O)c1F
RESULT: Condition not met

QUERY: Another compound to look at: N#C/C(=C(/N)Sc1ccc(N)cc1)c1ccccc1C(F)(F)F
RESULT: Condition not met

QUERY: Now consider CCN1CCN(Cc2ccc(Nc3ncc(F)c(-c4cc(F)c5nc(C)n(C(C)C)c5c4)n3)nc2)CC1 .
RESULT: Condition met

QUERY: Continue with C[C@@H](Nc1cc(F)cc(F)c1)c1cc(C(=O)N(C)C)cc2c(=O)cc(N3CCOCC3)oc12
RESULT: Condition not met

QUERY: Subsequent entry: COc1cc(CCc2cc(NC(=O)c3ccc(N4CC(C)NC(C)C4)cc3)n[nH]2)cc(OC)c1 (centres undefined)
RESULT: Condition met

QUERY: Note, next up: CC(C)(CCCCCC(O)CCCCCC(C)(C)C(=O)O)C(=O)O
RESULT: Condition not met

QUERY: Then what about the compound CC(C)c1c2cc(-c3ccnc(NC4CCC(NC5CCOCC5)CC4)n3)ccc2nn1C (centres undefined) ?
RESULT: Condition met

QUERY: Also, Cc1ccc(Nc2cc(N[C@@H]3CCCC[C@@H]3N)nnc2C(N)=O)nc1C please.
RESULT: Condition met

QUERY: Same lookup for C[C@H]1CNCCCN1S(=O)(=O)c1cccc2cncc(F)c12 [Ripasudil (K-115) hydrochloride dihydrate] , please.
RESULT: Condition not met

QUERY: Same lookup for O=C1Nc2ccccc2/C1=C1/Nc2ccccc2C1=O , please.
RESULT: Condition met

QUERY: Consider next the compound CCNc1nc(Nc2cc(F)c(C(=O)N3CCOCC3)cc2OC)ncc1C(F)(F)F in the same way.
RESULT: Condition met

QUERY: // same read-out, input: Oc1c(F)cc(-c2cnccc2-c2ccc(N3CCOCC3)cc2)cc1F
RESULT: Condition met

QUERY: Also need COc1ccc(S(=O)(=O)N(CCO)c2ccccc2CN(C)C/C=C/c2ccc(Cl)cc2)cc1 [KN-93 Phosphate] , thanks.
RESULT: Condition not met

QUERY: Cool, now C[C@@H](Oc1cc(-c2cnn(C3CCNCC3)c2)cnc1N)c1c(Cl)ccc(F)c1Cl
RESULT: Condition met

Values were extracted from the supplement of paper PMC9694430.
